tested_on: full-length beta-Catenin (Uniprot ID P35222) (Homo sapiens)
Construct: 10 nM full-length beta-Catenin (Uniprot ID P35222)
Sequence (P35222 whole entry): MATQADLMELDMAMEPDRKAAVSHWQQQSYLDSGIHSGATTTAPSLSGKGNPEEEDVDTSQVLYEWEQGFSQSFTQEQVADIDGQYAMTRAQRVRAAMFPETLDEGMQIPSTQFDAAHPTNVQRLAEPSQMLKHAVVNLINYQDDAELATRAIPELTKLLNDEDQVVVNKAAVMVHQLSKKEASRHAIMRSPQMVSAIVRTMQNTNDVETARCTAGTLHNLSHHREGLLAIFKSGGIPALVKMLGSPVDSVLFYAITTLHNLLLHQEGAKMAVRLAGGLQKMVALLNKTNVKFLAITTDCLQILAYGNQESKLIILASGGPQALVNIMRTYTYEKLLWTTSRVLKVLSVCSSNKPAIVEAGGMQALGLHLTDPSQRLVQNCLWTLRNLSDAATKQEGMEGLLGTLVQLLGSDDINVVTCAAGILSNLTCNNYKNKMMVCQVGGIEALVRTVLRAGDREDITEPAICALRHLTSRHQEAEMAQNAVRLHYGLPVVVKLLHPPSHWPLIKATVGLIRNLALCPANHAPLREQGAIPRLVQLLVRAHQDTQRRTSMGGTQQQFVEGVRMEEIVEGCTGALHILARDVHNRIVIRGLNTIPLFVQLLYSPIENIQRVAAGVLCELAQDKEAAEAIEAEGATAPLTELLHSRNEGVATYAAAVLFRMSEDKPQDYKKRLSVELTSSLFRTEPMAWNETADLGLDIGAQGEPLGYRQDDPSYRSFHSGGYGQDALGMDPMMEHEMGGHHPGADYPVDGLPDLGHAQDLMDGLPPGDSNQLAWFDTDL
method: Fluorescence polarization IC50 (beta-catenin / 5FAM-TCF4 10-53 competition)
Format: binding
measurement_conditions: Table E2-1; read-out: beta-Catenin FP IC50
Reported IC50 is given for each of the following compounds.
Expressed in nM, but write only the number.

Illustrative cases are given below, each with its answer.
Query block: Report IC50 for CC(=O)N1CCC[C@]12CC=CCCCC1(CCCC=CCCCCCC[C@@](C)(C(=O)N[C@@H](Cc3c[nH]cn3)C(=O)N[C@@H](Cc3csc4ccccc34)C(=O)N[C@@H](CCC(N)=O)C(N)=O)NC(=O)[C@H](C)NC(=O)[C@H](Cc3ccccc3)NC(=O)[C@H](C)NC(=O)[C@H](C)NC(=O)[C@H](CC(=O)O)NC(=O)[C@H](CC(=O)O)NC1=O)NC(=O)[C@H](C)NC(=O)[C@H](CC(=O)O)NC2=O (some centres unmarked)
Result block: 3660

Query block: Supply recorded IC50 for CC(=O)N1CCC[C@]12CC=CCCCC1(CCCC=CCCCCCC[C@@](C)(C(=O)N[C@@H](Cc3ccccc3)C(=O)N[C@@H](Cc3csc4ccccc34)C(=O)N[C@@H](Cc3c[nH]cn3)C(N)=O)NC(=O)[C@H](CCC(N)=O)NC(=O)[C@H](Cc3ccccc3)NC(=O)[C@H](C)NC(=O)[C@H](C)NC(=O)[C@H](CC(=O)O)NC(=O)[C@H](CC(=O)O)NC1=O)NC(=O)[C@H](C)NC(=O)[C@H](CC(=O)O)NC2=O (some centres unmarked) [I-361] here.
Result block: 42

Query block: Dear colleague, please send me the reported IC50 for CC[C@H](C)[C@@H]1NC(=O)[C@H](CC(=O)O)NC(=O)[C@]2(CC=CCCCC3(CCCC=CCCCCCC[C@@](C)(C(=O)N[C@@H](Cc4ccccc4)C(=O)N[C@@H](Cc4c[nH]c5ccccc45)C(=O)N[C@@H](Cc4c[nH]cn4)C(N)=O)NC(=O)[C@H](CCC(N)=O)NC(=O)[C@H](Cc4ccccc4)NC(=O)[C@H](C)NC(=O)[C@H](C)NC(=O)[C@H](CC(=O)O)NC(=O)[C@H](CC(=O)O)NC3=O)NC1=O)CCCN2C(C)=O (some centres unmarked) when you can.
Result block: 1760

Query block: Give recorded IC50. CC(=O)N1CCC[C@]12CC=CCCCC1(CCCC=CCCCCCC[C@@](C)(C(=O)N[C@@H](Cc3ccccc3)C(=O)N[C@@H](Cc3c[nH]c4ccccc34)C(N)=O)NC(=O)[C@H](C(C)C)NC(=O)[C@H](Cc3ccccc3)NC(=O)[C@H](C)NC(=O)[C@H](C)NC(=O)[C@H](CC(=O)O)NC(=O)[C@H](CC(=O)O)NC1=O)NC(=O)[C@H](C)NC(=O)[C@H](CC(=O)O)NC2=O (some centres unmarked)
Result block: 3290

***
Query block: Read the entry CC(=O)N1CCC[C@]12CC=CCCCC1(CCCC=CCCCCCC[C@@](C)(C(=O)N[C@@H](Cc3ccccc3)C(=O)N[C@@H](Cc3csc4ccccc34)C(=O)N[C@@H](CCC(N)=O)C(N)=O)NC(=O)[C@H](C(C)C)NC(=O)[C@H](Cc3ccccc3)NC(=O)[C@H](C)NC(=O)[C@H](C)NC(=O)[C@H](CN(CC(=O)O)CC(F)(F)F)NC(=O)[C@H](CC(=O)O)NC1=O)NC(=O)[C@H](C)NC(=O)[C@H](CC(=O)O)NC2=O (some centres unmarked) and write its reported IC50.
Result block: 139

Values were extracted from patent US20240116985A1.
